Tested on: L5178Y
Method: Cytotoxicity against parental mouse L5178Y cells assessed as inhibition of cell growth incubated for 24 hrs by MTT assay
Format: functional, cell-based
pIC50 values by entry
Notebook: values listed as pIC50 are -log10 of the concentration (mol/L).

Compound	pIC50
CN1CCN(c2nc(N)nc(CCCSCc3ccccc3)n2)CC1	4.56
CN1CCN(c2nc(N)nc(CCSc3ccccc3)n2)CC1	4.22
CN1CCN(c2nc(N)nc(CCC[Se]Cc3ccccc3)n2)CC1	4.50
CC(Sc1ccc2ccccc2c1)c1nc(N)nc(N2CCN(C)CC2)n1 (stereo unspecified)	4.74
CN1CCN(c2nc(N)nc(CCSCc3ccccc3)n2)CC1.Cl	4.08

For CCCC(Sc1ccc2ccccc2c1)c1nc(N)nc(N2CCN(C)CC2)n1 (stereo unspecified) , what is its reported pIC50?
4.62

For CC(Sc1cccc2ccccc12)c1nc(N)nc(N2CCN(C)CC2)n1 (stereo unspecified) , what is its reported pIC50?
4.81

For CCC([Se]Cc1ccccc1)c1nc(N)nc(N2CCN(C)CC2)n1 (stereo unspecified) , what is its reported pIC50?
5.06

---

Test system: L5178Y
Method: Antiproliferative activity against parental mouse L5178Y cells assessed as inhibition of cell growth incubated for 72 hrs by MTT assay
Assay type: functional, cell-based
Measurement kind: pIC50
Notebook: values listed as pIC50 are -log10 of the concentration (mol/L).

Use these answered entries as a reference point.
Compound	System name	pIC50
CCCC(SCc1ccccc1)c1nc(N)nc(N2CCN(C)CC2)n1.Cl (centres undefined)	L5178Y	4.62
CC(Sc1cccc2ccccc12)c1nc(N)nc(N2CCN(C)CC2)n1 (centres undefined)	L5178Y	4.63
CN1CCN(c2nc(N)nc(CCSc3ccccc3)n2)CC1	L5178Y	4.26

I'm curious: which pIC50 was measured for CN1CCN(c2nc(N)nc(CCC[Se]Cc3ccccc3)n2)CC1 tested on L5178Y?
4.51

I'm curious: which pIC50 was measured for CN1CCN(c2nc(N)nc(C(C)(C)Sc3ccccc3)n2)CC1.Cl tested on L5178Y?
4.19

I'm curious: which pIC50 was measured for CN1CCN(c2nc(N)nc(C(C)(C)Sc3ccc4ccccc4c3)n2)CC1 tested on L5178Y?
4.58

I'm curious: which pIC50 was measured for CN1CCN(c2nc(N)nc(CCCSCc3ccccc3)n2)CC1 tested on L5178Y?
4.41

I'm curious: which pIC50 was measured for CCCCC(Sc1ccc2ccccc2c1)c1nc(N)nc(N2CCN(C)CC2)n1 (centres undefined) tested on L5178Y?
4.44

---

Method: Cytotoxicity against human skin fibroblast cells assessed as inhibition of cell growth incubated for 72 hrs by MTS assay
Assay type: toxicity, cell-based
Measurement kind: IC50 at 72 h

For CCCC(Sc1ccccc1)c1nc(N)nc(N2CCN(C)CC2)n1.Cl (stereo not given) , what is its reported IC50 at 72 h?
> 100 µM

---

Method: Cytotoxicity against human HuT 102 cells assessed as inhibition of cell growth incubated for 72 hrs by MTS assay
Type: functional, cell-based
Applied conditions: HuT-102, 72 h
pIC50 values by entry
Notebook: values listed as pIC50 are -log10 of the concentration (mol/L).

Use these answered entries as a reference point.
Compound	pIC50
CCC([Se]Cc1ccccc1)c1nc(N)nc(N2CCN(C)CC2)n1 (stereo not given)	4.35
CN1CCN(c2nc(N)nc(CCC[Se]c3ccccc3)n2)CC1.Cl	4.21
CN1CCN(c2nc(N)nc(CCCSc3ccc4ccccc4c3)n2)CC1.Cl	4.71
CCCC(Sc1ccccc1)c1nc(N)nc(N2CCN(C)CC2)n1.Cl (stereo not given)	4.23

Note: attention shifts to another entry.
For CCCC([Se]c1ccccc1)c1nc(N)nc(N2CCN(C)CC2)n1.Cl (stereo not given) , what is its reported pIC50?
4.27

---

CI values by entry
System: L5178Y
Method: Synergistic antiproliferative activity against multidrug resistant mouse L5178Y cells expressing ABCB1 assessed as combination index at 200 uM incubated for 72 hrs in presence of doxorubicin at 17.242 uM by checkerboard assay
Assay type: functional
Output spec: single numeric token, no unit.

Compound	CI
CN1CCN(c2nc(N)nc(C(C)(C)Sc3ccccc3)n2)CC1.Cl	0.41
CCCC([Se]c1ccccc1)c1nc(N)nc(N2CCN(C)CC2)n1.Cl (centres undefined)	0.092
CN1CCN(c2nc(N)nc(CCSCc3ccccc3)n2)CC1.Cl	0.323

Note: attention shifts to another entry.
For CCC(Sc1ccccc1)c1nc(N)nc(N2CCN(C)CC2)n1.Cl (centres undefined) , what is its reported CI?
0.127

---

System: L5178Y
Method: Antiproliferative activity against multidrug resistant mouse L5178Y cells expressing ABCB1 assessed as inhibition of cell growth incubated for 72 hrs by MTT assay
Assay type: functional, cell-based
Measurement kind: pIC50
Notebook: values listed as pIC50 are -log10 of the concentration (mol/L).

Compound	pIC50
CN1CCN(c2nc(N)nc(CSc3ccccc3)n2)CC1	4.10

For CN1CCN(c2nc(N)nc(C[Se]Cc3ccccc3)n2)CC1 , what is its reported pIC50?
4.64

For CCCC(Sc1ccc2ccccc2c1)c1nc(N)nc(N2CCN(C)CC2)n1 (stereo not given) , what is its reported pIC50?
4.37

---

IC50 values by entry
Tested on: L5178Y
Method: Cytotoxicity against parental mouse L5178Y cells assessed as inhibition of cell growth incubated for 24 hrs by MTT assay
Format: functional, cell-based

Use these answered entries as a reference point.
Compound	System name	IC50
CCC(Sc1ccccc1)c1nc(N)nc(N2CCN(C)CC2)n1.Cl (stereo unspecified)	L5178Y	54.4 µM
CCC(Sc1cccc2ccccc12)c1nc(N)nc(N2CCN(C)CC2)n1 (stereo unspecified)	L5178Y	22.6 µM

For CN1CCN(c2nc(N)nc(C(C)(C)Sc3cccc4ccccc34)n2)CC1 , what is its reported IC50?
14.8 µM

For CCCCC(Sc1ccc2ccccc2c1)c1nc(N)nc(N2CCN(C)CC2)n1 (stereo unspecified) , what is its reported IC50?
23.2 µM

For CCC(Sc1ccc2ccccc2c1)c1nc(N)nc(N2CCN(C)CC2)n1 (stereo unspecified) , what is its reported IC50?
17.8 µM

For CN1CCN(c2nc(N)nc(CSc3ccc4ccccc4c3)n2)CC1.Cl , what is its reported IC50?
27.1 µM

---

IC50 values by entry
Test system: L5178Y
Method: Antiproliferative activity against parental mouse L5178Y cells assessed as inhibition of cell growth incubated for 72 hrs by MTT assay
Type: functional, cell-based
API: value field is a number in µM; no unit string.

Use these answered entries as a reference point.
Molecule	System name	Readout unit	IC50
CCCCC(Sc1ccccc1)c1nc(N)nc(N2CCN(C)CC2)n1.Cl (configuration not stated)	L5178Y	µM	20.6
CN1CCN(c2nc(N)nc(C[Se]Cc3ccccc3)n2)CC1	L5178Y	µM	45.6
CN1CCN(c2nc(N)nc(CCCSc3ccc4ccccc4c3)n2)CC1.Cl	L5178Y	µM	6.71
CCC(SCc1ccccc1)c1nc(N)nc(N2CCN(C)CC2)n1 (configuration not stated)	L5178Y	µM	83
CCC([Se]Cc1ccccc1)c1nc(N)nc(N2CCN(C)CC2)n1 (configuration not stated)	L5178Y	µM	10.7

For CCCC([Se]c1ccccc1)c1nc(N)nc(N2CCN(C)CC2)n1.Cl (configuration not stated) , what is its reported IC50?
14.4

For CN1CCN(c2nc(N)nc(CSCc3ccccc3)n2)CC1 , what is its reported IC50?
57.2

For CCC(Sc1cccc2ccccc12)c1nc(N)nc(N2CCN(C)CC2)n1 (configuration not stated) , what is its reported IC50?
28.2

For CN1CCN(c2nc(N)nc(CCCSc3ccccc3)n2)CC1.Cl , what is its reported IC50?
34.1

For CCCC(Sc1ccc2ccccc2c1)c1nc(N)nc(N2CCN(C)CC2)n1 (configuration not stated) , what is its reported IC50?
43.3

For CC(Sc1ccc2ccccc2c1)c1nc(N)nc(N2CCN(C)CC2)n1 (configuration not stated) , what is its reported IC50?
21.3

For CN1CCN(c2nc(N)nc(CCSCc3ccccc3)n2)CC1.Cl , what is its reported IC50?
38.6

For CCCC(Sc1ccccc1)c1nc(N)nc(N2CCN(C)CC2)n1.Cl (configuration not stated) , what is its reported IC50?
15.5

For CN1CCN(c2nc(N)nc(C(C)(C)Sc3cccc4ccccc34)n2)CC1 , what is its reported IC50?
19.9

For CN1CCN(c2nc(N)nc(CCC[Se]c3ccccc3)n2)CC1.Cl , what is its reported IC50?
13.3

For CCCCC(SCc1ccccc1)c1nc(N)nc(N2CCN(C)CC2)n1 (configuration not stated) , what is its reported IC50?
25.8

For CCC(Sc1ccc2ccccc2c1)c1nc(N)nc(N2CCN(C)CC2)n1 (configuration not stated) , what is its reported IC50?
21.2
